System: Setaria faberi (SETFA)
Test: Post-emergence biological efficacy, glasshouse pot test
Type: in vivo
Conditions: 312 h, Rate 1,000 g/ha, post-emergence spray, evaluated after 13 days (100=total damage to plant; 0=no damage to plant), read-out: Percentage damage caused to weed species, post-emergence, SETFA
readout: pest or weed control at 1000 g/ha (%)
Give the number; % is assumed, so skip it.

Query :: Which pest or weed control at 1000 g/ha value is on record for `CCN(Cc1ccnc(C)n1)c1nc(C2CC2)nc(C(=O)OC)c1Cl` ?
Result :: 30

Query :: // repeat for `COC(=O)c1nc(-c2ccc(OC)cc2C)nc(NCc2ccco2)c1Cl` and report
Result :: 0

Query :: // next record `C=CCN(Cc1cc(Cl)ccc1OC)c1nc(C2CC2)nc(C(=O)OC)c1Cl`
Result :: 20

Query :: Try `COC(=O)c1nc(C2CC2)nc(N(Cc2ccc(C)o2)C(C)C)c1Cl` next.
Result :: 90

Query :: # iterate: `COC(=O)c1nc(C2CC2)nc(N(C)Cc2ccc(C)cc2)c1Cl`
Result :: 50

Query :: Input `COC(=O)c1nc(-c2ccc(Cl)cc2OC)nc(NCc2ccco2)c1Cl`
Result :: 10

Query :: Please answer likewise for `COC(=O)c1nc(C2CC2)nc(N(C)Cc2ccc(N)cc2)c1Cl`
Result :: 90

Query :: Request: `COC(=O)c1nc(-c2ccc(C(F)(F)F)cc2)nc(NCc2ccco2)c1Cl`
Result :: 10

Query :: Now the compound `COC(=O)c1nc(-c2ccc(C)cc2F)nc(NCc2ccco2)c1Cl`
Result :: 0

Query :: Request: `COC(=O)c1nc(-c2ccc(Cl)cc2F)nc(NCc2ccco2)c1Cl`
Result :: 80

Query :: Now the same for `C=Cc1c(NCc2ccco2)nc(C2CC2)nc1C(=O)OC`
Result :: 10

Query :: Moving on to `COC(=O)c1nc(C2CC2)nc(N(C)Cc2cccnc2)c1Cl`
Result :: 60

Query :: Cool, now `COC(=O)c1nc(C2CC2)nc(N(C/C=C/c2ccccc2OC)C(C)C)c1Cl`
Result :: 80

Query :: Param item: COC(=O)c1nc(C2CC2)nc(N[C@@H](Cc2ccccc2)C(=O)OC(C)(C)C)c1Cl [4-293 (S)]
Result :: 40

Query :: Would you mind doing `COC(=O)c1nc(-c2ccc(OC)c(F)c2)nc(NCc2ccco2)c1Cl` as well?
Result :: 0

Query :: Do the same for `COC(=O)c1nc(C2CC2)nc(N(C)Cc2ccccc2Cl)c1Cl` please
Result :: 80

Query :: Okay, and `COc1c(Cl)ccc(-c2nc(NCC3CC3)c(Cl)c(C(=O)O)n2)c1F` ?
Result :: 90

Query :: Request: `COC(=O)c1nc(-c2ccc(Cl)cc2C)nc(NCc2ccco2)c1Cl`
Result :: 10

Query :: Try this compound too: `COC(=O)c1nc(-c2ccc(F)c(OC)c2)nc(NCc2ccco2)c1Cl`
Result :: 60

Query :: What about `COC(=O)c1nc(-c2ccc(OC)c(OC)c2)nc(NCc2ccco2)c1Cl` ?
Result :: 0

Query :: What do we get for `COC(=O)c1nc(C2CC2)nc(N(CCC#N)Cc2ccco2)c1Cl` ?
Result :: 40

Query :: Next up: `COC(=O)c1nc(-c2ccc(C)cc2Cl)nc(NCc2ccco2)c1Cl`
Result :: 0

Query :: Check `CCCN(Cc1ccccc1)c1nc(C2CC2)nc(C(=O)OC)c1Cl` too.
Result :: 70

Query :: And `Cc1c(NCC2CC2)nc(C2CC2)nc1OCC(=O)NCC1CC1` ?
Result :: 0

Query :: Moving on to `COC(=O)c1nc(-c2ccc(Cl)c(F)c2Cl)nc(NCc2ccco2)c1Cl`
Result :: 80

Query :: Repeat with `COC(=O)c1nc(C2CC2)nc(N(Cc2ccccc2)Cc2ccccc2)c1Cl`
Result :: 40

Query :: Next: `CCCN(Cc1ccc(C)cc1)c1nc(C2CC2)nc(C(=O)OC)c1Cl`
Result :: 40

Query :: Same question, `COC(=O)c1nc(-c2ccc(F)c(C(F)(F)F)c2)nc(NCc2ccco2)c1Cl` this time
Result :: 80

Query :: Please do the same for `CCN(Cc1ccc(C)o1)c1nc(C2CC2)nc(C(=O)OC)c1Cl` as well.
Result :: 90

Query :: Next entry: COC(=O)c1nc(C2CC2)nc(N(C)C(C)C(O)c2ccccc2)c1Cl (centres unmarked)
Result :: 30

Query :: Record: `CCCCN(Cc1ccccc1)c1nc(C2CC2)nc(C(=O)OC)c1Cl`
Result :: 40

Query :: Try this compound too: `COC(=O)c1nc(-c2ccc(Cl)c(OC)c2F)nc(NCc2ccco2)c1Cl`
Result :: 100

Query :: Likewise for `COC(=O)c1nc(C2CC2)nc(N(CC=C(C)C)Cc2ccccc2C(F)(F)F)c1Cl` ?
Result :: 10

Query :: Also `C=CCN(Cc1ccccc1F)c1nc(C2CC2)nc(C(=O)OC)c1Cl` ?
Result :: 90

Query :: Again, but for `COC(=O)c1nc(-c2ccc(Cl)c(F)c2F)nc(NCc2ccco2)c1Cl`
Result :: 80
